Test system: TRPC4 beta (transient receptor potential cation channel C4), mouse
protocolNotes: TRPC4 cation channel opening, retest – cell-based, Fluo4 calcium, HEK293 TRPC4beta/mu-opioid, duplicates, 10 µM, confirmation (AID 2426)
details: Fluo4 calcium fluorescence, at 10 µM
Activity calls are given as the source filed them.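 Rule for the calls: active = fluorescence ratio normalized to control raised more than 50% in primary screen plus both repeat runs; inactive = the rest.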
Outcome (select one): Y for active, N for inactive

State the result this test recorded for CN(C)C(CNC(=O)c1cccc(C(F)(F)F)c1)c1ccco1 (centres undefined) .
N

Lab log entry: CCN1/C(=C\c2ccc3cc(C)ccc3[n+]2CC)Sc2cc(C)c(C)cc21 — outcome as called in the assay?
Y

Which result was noted for this compound in the test: O=C(N/N=C/c1cc2c(cc1Br)OCO2)c1cc2ccccc2o1
N

Hi team, can someone confirm the assay call for COc1ccc(CNC(=O)C(C)NCc2ccc(S(N)(=O)=O)cc2)cc1 (centres undefined) ?
N

Write down the call the test reported for this compound. Item: N=c1c2c(n(Cc3ccccc3)c3c1CCC3)CCC2
N

What call does the record list for COc1ccc(C(CNc2nc(-c3cccnc3)nc3ccccc23)N(C)C)cc1 (centres undefined) ?
Y

Returns: the outcome recorded for Cc1ccc(OCC(=O)NNC(=S)NC(=O)c2ccc(Br)o2)c(C)c1 in this assay.
N

Call for entry OCC(Cc1ccccc1)NCc1ccccc1C(F)(F)F (centres undefined) :
N

Could you please tell me the result logged for CCN1CCN(c2ccc(S(=O)(=O)N3CCCCC3)cc2NC(=O)c2cccc(Cl)c2)CC1 in this assay?
Y

Recorded test call requested for CCOc1cc(S(=O)(=O)N2CCN(C(=O)c3ccco3)CC2)ccc1F
N

Could you please tell me the result logged for Cc1noc(C)c1COC(=O)[C@@H](NC(=O)c1ccccc1Cl)C(C)C in this assay?
N

In this assay, the call recorded for Cc1c(N)c(C(C)(C)C)cc(C(C)(C)C)c1[N+](=O)[O-] was what?
N

Record lookup: outcome of this test for Clc1ccc2[nH]c3c(c2c1)CNCC3 ?
N

Answer briefly: the call reported for CN1CCN(CC#CCn2c3ccccc3c3ccccc32)CC1 in this assay.
N

Would you mind telling me which call this test gave CSc1ccc(/C=N\NC(=O)CC(=O)NC(C)C)cc1 ?
N

Please state the recorded outcome for this compound: c1ccc2c(c1)[nH]c1c(N3CCCC3)ncnc12
N

Would you mind telling me which call this test gave O=C(COc1cc(Cl)c(Cl)cc1Cl)NCCc1ccccn1 ?
Y

Could you please tell me the result logged for Cc1cc(Nc2ccc3c(c2)OCCO3)c2cccc(C)c2n1 in this assay?
N

Kindly provide the recorded test outcome for the following compound: CC(=O)c1ccc(OCC(O)CN2CCN(S(=O)(=O)c3c(C)cc(C)cc3C)CC2)cc1 (centres undefined)
N

Name the outcome recorded for CCCCN(C)CCNC(=S)Nc1ccc2nc(N3CCN(CC)CC3)cc(C)c2c1 in the assay.
N

# outcome recorded in this test, key = CCc1cccc(OCC(=O)Nc2ccc(C(=O)O)cc2NC(=O)COc2cccc(CC)c2)c1
N

How was Cc1cccc(NC(=O)CNC(=O)CN2C(=O)NC3(CCCCC3C)C2=O)c1C (centres undefined) classified in this test?
N

Field: outcome | Entry: C=C(c1ccc(O)cc1)c1ccc(O)cc1
N

Which result was noted for this compound in the test: CC(=O)Cc1nsc(NC(=O)c2csc3c2CCCC3)n1
N

Please share the test call associated with CN(C)C(CNC(=O)Nc1cccc(Cl)c1)c1cccnc1 (centres undefined) .
N

What classification did CC1(C)CC(NC(=O)c2cc(COc3cccc(C(F)(F)F)c3)on2)CCO1 (centres undefined) end up with in this test?
N

Please state the recorded outcome for this compound: CCCCN(C(=O)c1cccc2c(=O)c(C)c(-c3ccccc3)oc12)c1ccccc1
N

// return assay outcome for CCCN1C2=NCCN2c2cc(C)c(C)cc21
N

GET /call?item= COc1ccc2c(Cl)c(-c3nnc4n3CCCCC4)sc2c1 returns the recorded outcome of this test.
Y

Per the assay record, what outcome was assigned to CCn1c(N2CCN(S(=O)(=O)CC)CC2)nc2ccccc21 ?
Y

Which result was noted for this compound in the test: Cc1ccc(C)c(N2CCN(CCCNC(=O)CCn3c(=O)c4cccn4c4cccnc43)CC2)c1
N

Test call for this compound, please: COc1ccccc1N1CCN(CC(C)N(C(=O)C2CCCCC2)c2ccccn2)CC1 (centres undefined)
N

Dear all, I need the recorded test outcome for CCCn1c(N2CCN(S(=O)(=O)Cc3ccccc3)CC2)nc2ccccc21 , thank you.
N

Lab log entry: COc1ccc(CN(C)C(=O)c2ccc(NC(=O)CC3SC(N4CCCC4)=NC3=O)cc2)c(OC)c1 (centres undefined) — outcome as called in the assay?
N

Outcome? Cc1cccc2cc(CN(CCCN(C)C)C(=S)NCCc3ccccc3)c(=O)[nH]c12
N

Called result for Cc1nn(-c2cc(C(F)(F)F)ccc2Cl)c2nc(C(Cl)(Cl)Cl)[nH]c(=O)c12
N

Field: outcome | Entry: CCOCCCNCc1ccc(OCc2ccccc2Cl)cc1
N

Give the logged outcome of this assay for the following compound: CSc1ccc(C(=O)NCC(c2ccco2)N(C)C)cc1[N+](=O)[O-] (centres undefined)
Y

Just curious, what result did COc1cccc(O)c1CN1CCCC(C(=O)c2cccc(C(F)(F)F)c2)C1 (centres undefined) get here?
N

For c1ccc(CN2CCN(c3nc4ccccc4s3)CC2)cc1 , which call appears in the assay record?
N

Test call, this compound: Cc1cc(C)c2[nH]c(=O)c(CN(Cc3cccnc3)C(=S)NCCCN(C)C)cc2c1
N

Just curious, what result did CCN1CCCC1CNS(=O)(=O)c1c(C)cc(C)cc1C (centres undefined) get here?
Y

Assay result, entry CC(=O)C1=C(O)C(=O)N(Cc2ccco2)C1c1ccc2c(c1)OCO2 (centres undefined) — outcome?
N

Recorded test outcome, item CCCCN(C)CCNC(=O)c1c[nH]c2ccc(S(=O)(=O)N(CC)CC)cc2c1=O
N
